Measured values drawn from PubChem BioAssay (EPA / NIEHS) for this set.

assay details: ATG_AP_1_CIS: Attagene CIS-FACTORIAL HepG2 Assay for human Activator Protein 1 (AP-1) (AID 2282931)
conditions: HepG2 Attagene cis-factorial AP-1 reporter mRNA; actives raise or lower the signal
Calls of active or inactive are those of the source. How the source made its calls: active means hit-call score of the fitted dose curve at least 0.9, where 1 is the maximum; inactive means score below 0.9.
Select the matching outcome among active, inactive

# count of solved cases: 4
COC[C@H](C)N(C(=O)CCl)c1c(C)csc1C    inactive
COP(=S)(OC)Oc1ccc(S(=O)(=O)N(C)C)cc1    inactive
CCCCCCCCC(=O)NCc1ccc(O)c(OC)c1    inactive
O=C/C=C/c1ccccc1    inactive

Query :: Tell me the recorded outcome of this test for ClC1=C(Cl)[C@]2(Cl)[C@@H]3[C@@H](Cl)[C@@H](Cl)C[C@@H]3[C@@]1(Cl)C2(Cl)Cl .
Result :: inactive

###

assay details: CCTE_Simmons_MITO_basal_resp_rate: CCTE's HepG2 Seahorse XF Respirometric Screening Assay at Basal Respiratory State, Simmons Lab (AID 2284001)
conditions: actives raise or lower the signal
Description: CCTE_Simmons_MITO is cell-based, respirometric assay using HepG2 cells and a Seahorse XF Analyzer to measure oxygen consumption rates over four temporal phases spanning a total of 72 minutes: pre-injection (pre-treatment), basal (following test compound injection), maximal (following FCCP uncoupler injection), and inhibited (following rotenone/antimycin A injection)CCTE_Simmons_MITO_basal_resp_rate is one of 4 assay components calculated from the CCTE_Simmons_MITO assay. […]
The source made the active and inactive calls. Rule for the calls: active = hit-call score of the fitted dose curve at least 0.9, where 1 is the maximum; inactive = score below 0.9.
Select the matching outcome among active, inactive

O=C1C2(Cl)C3(Cl)C4(Cl)C(Cl)(Cl)C5(Cl)C3(Cl)C1(Cl)C5(Cl)C24Cl (stereo unspecified)    active
O=C(O)C(F)(F)C(F)(F)C(F)(F)C(F)(F)C(F)(F)C(F)(F)C(F)(F)C(F)(F)C(F)(F)C(F)(F)F    inactive
C[C@]12CCC(=O)C[C@@H]1CC[C@@H]1[C@@H]2CC[C@]2(C)[C@@H](O)CC[C@@H]12    inactive
C=C(C)C(=O)[O][Sn]([CH2]CCC)([CH2]CCC)[CH2]CCC    active
CC(=O)[O][Hg][c]1ccccc1    active

Could you now look at the following compound, please?
Query :: Tell me the recorded outcome of this test for COc1cc(-c2ccc(N)c(OC)c2)ccc1N .
Result :: inactive

###

Read-out: Intercellular Adhesion Molecule 1 (ICAM1), ICAM1 (gene 3383)
assay details: LTEA_HepaRG_ICAM1: Life Technologies and Expression Analysis (LTEA) Assay for Intercellular Adhesion Molecule 1 (ICAM1) using HepaRG (AID 2283507)
conditions: mRNA level, 48 h; actives raise or lower the signal
Calls of active or inactive are those of the source. Rule for the calls: active = hit-call score of the fitted dose curve at least 0.9, where 1 is the maximum; inactive = score below 0.9.
Select the matching outcome among 1.0 for active, 0.0 for inactive

CC(C)(C)c1cc(O)ccc1O    0.0
O=C(O)C(F)(F)C(F)(F)C(F)(F)C(F)(F)C(F)(F)C(F)(F)C(F)(F)C(F)(F)C(F)(F)C(F)(F)F    0.0
Cc1ccccc1N    0.0
ClC1(Cl)C2(Cl)C3(Cl)C4(Cl)C(Cl)(Cl)C5(Cl)C3(Cl)C1(Cl)C5(Cl)C24Cl (stereo not drawn)    0.0
CC(C)(c1ccccc1)c1ccc(O)c(C(C)(C)c2ccccc2)c1    1.0

Query :: Tell me the recorded outcome of this test for CC(=O)[O][Hg][c]1ccccc1 .
Result :: 1.0

Query :: Tell me the recorded outcome of this test for COc1cc(-c2ccc(N)c(OC)c2)ccc1N .
Result :: 0.0

Query :: Tell me the recorded outcome of this test for CCC(=O)C(CC(C)N(C)C)(c1ccccc1)c1ccccc1 (stereo not drawn) .
Result :: 0.0

###

System: TTR (gene 7276)
assay details: CCTE_GLTED_hTTR_0.125uM: CCTE's human Transthyretin (hTTR) Inhibition Assay, with 0.125uM TTR, Great Lakes Toxicology and Ecology Division (GLTED) Lab (AID 2284431);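 further: hits lower the fluorescence signal relative to DMSO baseline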
The source made the active and inactive calls. The calls were made as follows: active = hit-call score of the fitted dose curve at least 0.9, where 1 is the maximum; inactive = score below 0.9.
readout type: AC50

O=C1C(Cl)=C(Cl)C(=O)c2ccccc21    3670 nM (active)
ClC(Cl)=C(Cl)C(Cl)=C(Cl)Cl    9920 nM (active)
CC(C)(c1ccccc1)c1ccc(O)c(C(C)(C)c2ccccc2)c1    241 nM (active)
Oc1ccc(-c2ccccc2)cc1    2830 nM (active)

Query :: Notebook entry, TTR (gene 7276) assay: AC50 of CCCCCCCCc1ccc(O)cc1 = ?
Result :: 1200 nM (active)

Query :: Notebook entry, TTR (gene 7276) assay: AC50 of CCC(C)(C)c1ccc(O)c(C(C)(C)CC)c1 = ?
Result :: 3180 nM (active)

Query :: Notebook entry, TTR (gene 7276) assay: AC50 of CCOP(=S)(OCC)SCSP(=S)(OCC)OCC = ?
Result :: 1570 nM (active)

Query :: Notebook entry, TTR (gene 7276) assay: AC50 of COP(=O)(OC)O/C(=C\Cl)c1cc(Cl)c(Cl)cc1Cl = ?
Result :: 1180 nM (active)

Query :: Notebook entry, TTR (gene 7276) assay: AC50 of O=[N+]([O-])c1ccc(O)c([N+](=O)[O-])c1 = ?
Result :: 155 nM (active)

Query :: Notebook entry, TTR (gene 7276) assay: AC50 of O=C(O)C(F)(F)C(F)(F)C(F)(F)C(F)(F)C(F)(F)C(F)(F)C(F)(F)C(F)(F)C(F)(F)C(F)(F)F = ?
Result :: 783 nM (active)

###

study target: sheep Cyclooxygenase-1 (Cox1), PTGS1 (gene 443551)
assay details: NVS_ENZ_oCOX1: NovaScreen (NVS) Enzymatic Assay for sheep Cyclooxygenase-1 (Cox1) (AID 2283239);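 further: actives reduce cyclooxygenase activity so potencies are for inhibitors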
Inconclusive results are not listed. The source made the active and inactive calls. Rule for the calls: active = hit-call score of the fitted dose curve at least 0.9, where 1 is the maximum; inconclusive = response in the unintended direction; inactive = score below 0.9.
Select the matching outcome among active, inactive

# count of solved cases: 6
OCc1ccco1    active
ClC(Cl)=C(Cl)C(Cl)=C(Cl)Cl    inactive
CC(C)(C)c1cc(O)ccc1O    active
O=C(O)C(F)(F)C(F)(F)C(F)(F)C(F)(F)C(F)(F)C(F)(F)C(F)(F)C(F)(F)C(F)(F)C(F)(F)F    inactive
COC(=O)Cc1ccccc1    inactive
Nc1ccc(-c2ccc(N)c(Cl)c2)cc1Cl    active

Query :: Tell me the recorded outcome of this test for ClCCBr .
Result :: inactive

Query :: Tell me the recorded outcome of this test for Nc1cccc2ccccc12 .
Result :: active

Query :: Tell me the recorded outcome of this test for CCCCCCCCCl .
Result :: active

###

assay details: CCTE_Shafer_MEA_acute_per_network_burst_spike_number_mean: CCTE's Neural Acute Assay for Average Number of Spikes in a Network Burst, Shafer Lab (AID 2284019)
Active and inactive are the calls of the source. Rule for the calls: active = hit-call score of the fitted dose curve at least 0.9, where 1 is the maximum; inactive = score below 0.9.
Select the matching outcome among active, inactive

# count of solved cases: 10
CC(=O)OC(c1ccccc1)C(Cl)(Cl)Cl (centres undefined)    inactive
ClC1(Cl)C2(Cl)C3(Cl)C4(Cl)C(Cl)(Cl)C5(Cl)C3(Cl)C1(Cl)C5(Cl)C24Cl (centres undefined)    inactive
O=C(Nc1ccc2[nH]ccc2c1)c1cc2cc(F)ccc2n1Cc1cccc(F)c1    inactive
CC(=O)[O][Hg][c]1ccccc1    active
CCOP(=S)(OCC)SCSP(=S)(OCC)OCC    inactive
C=C(C)C(=O)[O][Sn]([CH2]CCC)([CH2]CCC)[CH2]CCC    inactive
CCN1CCC2(CC1)COc1cc3c(cc12)N(C(=O)c1ccc(-c2ccc(-c4nnc(C)o4)cc2C)cc1)CC3    inactive
CC(C)(C)c1cc(O)ccc1O    inactive
CC(C)(C)CC(C)(C)c1ccc(O)cc1    inactive
O=C(O)C(Cl)(Cl)Cl    inactive

Query :: Tell me the recorded outcome of this test for CC(C)(c1ccccc1)c1ccc(O)c(C(C)(C)c2ccccc2)c1 .
Result :: inactive

Query :: Tell me the recorded outcome of this test for CCC(C)(C)c1ccc(O)c(C(C)(C)CC)c1 .
Result :: active

Query :: Tell me the recorded outcome of this test for O=C1C2(Cl)C3(Cl)C4(Cl)C(Cl)(Cl)C5(Cl)C3(Cl)C1(Cl)C5(Cl)C24Cl (centres undefined) .
Result :: inactive

Query :: Tell me the recorded outcome of this test for CCC(=O)C(CC(C)N(C)C)(c1ccccc1)c1ccccc1 (centres undefined) .
Result :: inactive

###

assay details: CCTE_Shafer_MEA_acute_LDH: CCTE's Lactate Dehydrogenase Assay for Cytotoxicity in the Neural Acute Assay, Shafer Lab (AID 2284086);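 further: active means LDH release rises above DMSO vehicle level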
Records with an inconclusive call do not appear. The source made the active and inactive calls. The calls were made as follows: active = hit-call score of the fitted dose curve at least 0.9, where 1 is the maximum; inconclusive = response in the unintended direction; inactive = score below 0.9.
readout type: outcome

CC(=O)[O][Hg][c]1ccccc1    inactive
CCCCCCCCc1ccc(O)cc1    inactive
CC(C)(OO)c1ccccc1    inactive

###

Read-out: Collagen III, COL3A1 (gene 1281)
assay details: BSK_MyoF_CollagenIII: BioMAP Diversity Plus: MyoF Assay for Collagen III Biomarker Activity (AID 2284239)
conditions: primary human lung fibroblasts
The source made the active and inactive calls. The calls were made as follows: active = hit-call score of the fitted dose curve at least 0.9, where 1 is the maximum; inactive = score below 0.9.
readout type: AC50

Worked cases, answers included:
Nc1cccc2ccccc12    14.5 µM (active)
Nc1ccc(-c2ccc(N)c(Cl)c2)cc1Cl    3.17 µM (active)
O=[N+]([O-])c1ccc2c3c(cccc13)CC2    inactive
Nc1ncc([N+](=O)[O-])s1    inactive
ClC1=C(Cl)[C@]2(Cl)[C@H]3[C@H]([C@H]4C=C[C@H]3C4)[C@@]1(Cl)C2(Cl)Cl    5.43 µM (active)
CC1(C)Cc2cccc(O)c2O1    inactive
O=C(O)CCC(F)(C(F)(F)F)C(F)(F)F    inactive
COC[C@H](C)N(C(=O)CCl)c1c(C)csc1C    inactive

Query :: Recorded AC50 of COc1cc(OC)nc(NC(=O)NS(=O)(=O)c2ncccc2C(=O)N(C)C)n1 , please.
Result :: inactive

Query :: Recorded AC50 of O=C(O)C(F)(F)C(F)(F)C(F)(F)C(F)(F)C(F)(F)C(F)(F)F , please.
Result :: inactive

Query :: Recorded AC50 of C(=NC1CCCCC1)=NC1CCCCC1 , please.
Result :: 7.83 µM (active)
